src = ChEMBL document CHEMBL3351980

Let's go through some recorded Ki values for Mu-type opioid receptor (Homo sapiens, UniProt P35372) together.
// note: answer is a bare numeric in nM

According to the records, this molecule COC(=O)[C@@H]1C[C@H](OC(=O)/C=C/c2ccsc2)C(=O)[C@H]2[C@@]1(C)CC[C@H]1C(=O)O[C@H](c3ccoc3)C[C@]21C displays Ki of 18

response.value for COC(=O)[C@@H]1C[C@H](OC(=O)/C=C/c2cccnc2)C(=O)[C@H]2[C@@]1(C)CC[C@H]1C(=O)O[C@H](c3ccoc3)C[C@]21C (field: Ki) = 334

Measured Ki of C=CC(C)C(=O)O[C@H]1C[C@@H](C(=O)OC)[C@]2(C)CC[C@H]3C(=O)O[C@H](c4ccoc4)C[C@]3(C)[C@H]2C1=O (stereo partly specified) : 439

====

These compounds were tested on UniProt P35372; Ki is the recorded read-out.
Record the value in nM, omitting the unit from your answer.

According to the records, this compound COC(=O)[C@@H]1C[C@H](OC(=O)/C=C/c2ccccc2)C(=O)[C@H]2[C@@]1(C)CC[C@H]1C(=O)O[C@H](c3ccoc3)C[C@]21C displays Ki of 52

Briefly, Ki measured for COC(=O)[C@@H]1C[C@H](OC(=O)C=C(C)C)C(=O)[C@H]2[C@@]1(C)CC[C@H]1C(=O)O[C@H](c3ccoc3)C[C@]21C : 284

====

Would you kindly list pKi for each of these compounds?
# test system: Delta-type opioid receptor (Homo sapiens)
# assay protocol: Displacement of [3H]DADLE from delta opioid receptor (unknown origin) expressed in HEK293T cells after 1.5 hrs by radioligand binding assay
pKi: −log10 of the molar value.

According to the records, this compound COC(=O)[C@@H]1C[C@H](OC(=O)/C=C/c2ccc(C(F)(F)F)cc2)C(=O)[C@H]2[C@@]1(C)CC[C@H]1C(=O)O[C@H](c3ccoc3)C[C@]21C displays pKi of < 5.00

Reported pKi of C/C=C/C(=O)O[C@H]1C[C@@H](C(=O)OC)[C@]2(C)CC[C@H]3C(=O)O[C@H](c4ccoc4)C[C@]3(C)[C@H]2C1=O : < 5.00

Entry C=C(C)C(=O)O[C@H]1C[C@@H](C(=O)OC)[C@]2(C)CC[C@H]3C(=O)O[C@H](c4ccoc4)C[C@]3(C)[C@H]2C1=O , pKi reported as 5.11

// field: pKi; key: COC(=O)[C@@H]1C[C@H](OC(=O)/C=C/c2ccc(OC)cc2)C(=O)[C@H]2[C@@]1(C)CC[C@H]1C(=O)O[C@H](c3ccoc3)C[C@]21C ; value = < 5.00

====

result type: Ki

Mu-type opioid receptor (Homo sapiens, UniProt P35372) Ki of C=C(C)C(=O)O[C@H]1C[C@@H](C(=O)OC)[C@]2(C)CC[C@H]3C(=O)O[C@H](c4ccoc4)C[C@]3(C)[C@H]2C1=O is > 10 µM

Record for COC(=O)[C@@H]1C[C@H](OC(=O)/C=C/c2ccccc2[N+](=O)[O-])C(=O)[C@H]2[C@@]1(C)CC[C@H]1C(=O)O[C@H](c3ccoc3)C[C@]21C under target or system Mu-type opioid receptor (Homo sapiens, UniProt P35372): Ki reported as > 10 µM

Summary: COC(=O)[C@@H]1C[C@H](OC(=O)/C=C/c2ccc3c(c2)OCO3)C(=O)[C@H]2[C@@]1(C)CC[C@H]1C(=O)O[C@H](c3ccoc3)C[C@]21C , Mu-type opioid receptor (Homo sapiens, UniProt P35372), Ki = 2.82 µM

====

Please respond with reported pKi for every item in the list.
Quick note: pKi means taking -log10 of the concentration in moles per liter.

pKi on Kappa-type opioid receptor (Homo sapiens, UniProt P41145) for COC(=O)[C@@H]1C[C@H](OC(=O)/C=C/c2ccc([N+](=O)[O-])cc2)C(=O)[C@H]2[C@@]1(C)CC[C@H]1C(=O)O[C@H](c3ccoc3)C[C@]21C is 6.55

I looked up COC(=O)[C@@H]1C[C@H](OC(=O)/C=C/c2ccccc2)C(=O)[C@H]2[C@@]1(C)CC[C@H]1C(=O)O[C@H](c3ccoc3)C[C@]21C and its pKi for Kappa-type opioid receptor (Homo sapiens, UniProt P41145) was 8.02

pKi for Kappa-type opioid receptor (Homo sapiens, UniProt P41145) with input COC(=O)[C@@H]1C[C@H](OC(=O)/C=C/c2ccccc2OC)C(=O)[C@H]2[C@@]1(C)CC[C@H]1C(=O)O[C@H](c3ccoc3)C[C@]21C equals 7.19

The observed pKi for COC(=O)[C@@H]1C[C@H](OC(=O)/C=C/c2cc(OC)ccc2OC)C(=O)[C@H]2[C@@]1(C)CC[C@H]1C(=O)O[C@H](c3ccoc3)C[C@]21C when tested with Kappa-type opioid receptor (Homo sapiens, UniProt P41145) stands at 6.24

====

# Species: Homo sapiens
# assay protocol: Selectivity ratio of Ki for delta opioid receptor (unknown origin) to ratio of Ki for kappa opioid receptor (unknown origin)
1.0 if Ratio Ki is below 70. 0.0 if not; exact matches included in 0.0.

(Q) Does the reported Ratio Ki of COC(=O)[C@@H]1C[C@H](OC(=O)/C=C/c2ccc(C(F)(F)F)cc2)C(=O)[C@H]2[C@@]1(C)CC[C@H]1C(=O)O[C@H](c3ccoc3)C[C@]21C stay below 70?
(A) 1.0

(Q) # check: Ratio Ki < 70 for C=CC(C)C(=O)O[C@H]1C[C@@H](C(=O)OC)[C@]2(C)CC[C@H]3C(=O)O[C@H](c4ccoc4)C[C@]3(C)[C@H]2C1=O (stereo partly specified)
(A) 0.0

(Q) Just wondering, is Ratio Ki of C=C(C)C(=O)O[C@H]1C[C@@H](C(=O)OC)[C@]2(C)CC[C@H]3C(=O)O[C@H](c4ccoc4)C[C@]3(C)[C@H]2C1=O below 70?
(A) 0.0

(Q) Please state whether Ratio Ki is below 70 for COC(=O)[C@@H]1C[C@H](OC(=O)C=C(C)C)C(=O)[C@H]2[C@@]1(C)CC[C@H]1C(=O)O[C@H](c3ccoc3)C[C@]21C
(A) 1.0

(Q) Just wondering, is Ratio Ki of COC(=O)[C@@H]1C[C@H](OC(=O)/C=C/c2ccsc2)C(=O)[C@H]2[C@@]1(C)CC[C@H]1C(=O)O[C@H](c3ccoc3)C[C@]21C below 70?
(A) 1.0

(Q) Hello, I'm reviewing records and need to know if Ratio Ki of COC(=O)[C@@H]1C[C@H](OC(=O)/C=C/c2ccccc2)C(=O)[C@H]2[C@@]1(C)CC[C@H]1C(=O)O[C@H](c3ccoc3)C[C@]21C is below 70. Could you check?
(A) 0.0

====

# test system: Delta-type opioid receptor (Homo sapiens, UniProt P41143)
# Sequence (P41143 whole entry): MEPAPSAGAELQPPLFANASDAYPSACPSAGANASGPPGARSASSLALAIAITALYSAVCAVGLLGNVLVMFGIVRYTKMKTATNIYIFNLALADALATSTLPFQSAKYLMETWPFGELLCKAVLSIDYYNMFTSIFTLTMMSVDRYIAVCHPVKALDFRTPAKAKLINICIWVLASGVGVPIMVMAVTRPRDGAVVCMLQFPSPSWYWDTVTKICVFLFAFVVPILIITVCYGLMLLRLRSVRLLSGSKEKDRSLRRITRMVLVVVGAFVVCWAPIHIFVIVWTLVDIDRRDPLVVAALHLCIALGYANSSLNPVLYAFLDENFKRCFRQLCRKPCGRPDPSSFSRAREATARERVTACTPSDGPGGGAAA
# assay protocol: Displacement of [3H]DADLE from delta opioid receptor (unknown origin) expressed in HEK293T cells after 1.5 hrs by radioligand binding assay
result type: Ki (µM)
Entry rule: numbers only, all in µM.

Entry COC(=O)[C@@H]1C[C@H](OC(=O)/C=C/c2cccnc2)C(=O)[C@H]2[C@@]1(C)CC[C@H]1C(=O)O[C@H](c3ccoc3)C[C@]21C ; Ki = 4.89

COC(=O)[C@@H]1C[C@H](OC(=O)/C=C/c2ccccc2)C(=O)[C@H]2[C@@]1(C)CC[C@H]1C(=O)O[C@H](c3ccoc3)C[C@]21C yielded Ki of 0.7

====

# test system: Delta-type opioid receptor (Homo sapiens)
# assay protocol: Displacement of [3H]DADLE from delta opioid receptor (unknown origin) expressed in HEK293T cells after 1.5 hrs by radioligand binding assay
result type: pKi
The scale used: pKi is minus the common logarithm of the concentration in molar units.

// recorded pKi for COC(=O)[C@@H]1C[C@H](OC(=O)C=C(C)C)C(=O)[C@H]2[C@@]1(C)CC[C@H]1C(=O)O[C@H](c3ccoc3)C[C@]21C : 5.58

# pKi of COC(=O)[C@@H]1C[C@H](OC(=O)/C=C/c2cc(C(F)(F)F)ccc2C(F)(F)F)C(=O)[C@H]2[C@@]1(C)CC[C@H]1C(=O)O[C@H](c3ccoc3)C[C@]21C = 5.23

====

result type: Ki

Entry COC(=O)[C@@H]1C[C@H](OC(=O)/C=C/c2cc(OC)c(OC)c(OC)c2)C(=O)[C@H]2[C@@]1(C)CC[C@H]1C(=O)O[C@H](c3ccoc3)C[C@]21C : Ki on UniProt:P35372 = > 10 µM

Record COC(=O)[C@@H]1C[C@H](OC(=O)/C=C/c2ccccc2C(F)(F)F)C(=O)[C@H]2[C@@]1(C)CC[C@H]1C(=O)O[C@H](c3ccoc3)C[C@]21C ; system UniProt:P35372; Ki = > 10 µM

Tested system UniProt:P35372; Ki recorded for COC(=O)[C@@H]1C[C@H](OC(=O)/C=C/c2ccc(C(F)(F)F)cc2)C(=O)[C@H]2[C@@]1(C)CC[C@H]1C(=O)O[C@H](c3ccoc3)C[C@]21C was > 10 µM
